System: EKVX
assayOverview: NCI tumour cell line growth inhibition, 48 h
Activity calls are given as the source filed them. No stated cut-off is given here; in the data, active = GI50 up to about 1.1 µM and inactive = higher.
valueType: GI50

Solved entries:
COc1c(CCl)cc(-c2cc(=O)c3ccccc3s2)cc1CCl: > 100 µM (inactive)
COc1ccc(CCc2ccc3c(c2)OCO3)cc1: 66.8 µM (inactive)
C[n+]1c2ccccc2c(NCC(=O)O)c2ccccc21: 87.5 µM (inactive)
CN1c2ccccc2SC2C(c3ccccc3)=NOC21 (configuration not stated): 24.9 µM (inactive)

Request: Entry O=C(C1C(c2ccccc2)N1C(c1ccccc1)c1ccccc1)C1C(c2ccccc2)N1C(c1ccccc1)c1ccccc1 (configuration not stated) has what GI50?
Result: 48.2 µM (inactive)

Request: Next molecule up: `Cc1ccc(-c2cc(-c3ccc(Cl)cc3)nc(/N=C3\C(=O)N(CN4CCOCC4)c4ccccc43)n2)cc1`
Result: 30.8 µM (inactive)

Request: Next molecule up: CC(NNC(=O)c1cc[n+]([BH2-]C#N)cc1)c1ccc(Cl)cc1Cl (configuration not stated)
Result: 24.5 µM (inactive)

Request: Next molecule up: `O=C1Nc2ccccc2C(=O)/C1=C/NC(=S)NCCc1ccccc1`
Result: > 100 µM (inactive)

Request: Next molecule up: O=C1c2ccccc2-n2nnnc2C2CSCN12 (configuration not stated)
Result: > 100 µM (inactive)

Request: Next molecule up: `O=[N+]([O-])c1ccc(Sc2c3ccccc3nc3ccccc23)cn1`
Result: > 57.4 µM (inactive)
